System: capsid protein of the Influenza H1N1 virus
Assay: BIACORE surface plasmon resonance interaction with immobilized peptide
Format: binding
No end group written: not given here.

{"columns": ["substance", "target.under.test", "interaction"],
 "data": [
  ["Ac-RVTQMNLNDRLASLYDKV [SEQ ID NO: 2]", "capsid protein of the Influenza H1N1 virus", "showed interaction"],
  ["NLNDRLASLYDKV [SEQ ID NO: 15]", "capsid protein of the Influenza H1N1 virus", "showed interaction"],
  ["RVTQMNLNDRLASLYDKV [SEQ ID NO: 1]", "capsid protein of the Influenza H1N1 virus", "showed interaction"],
  ["NDRLASLYDKV [SEQ ID NO: 14]", "capsid protein of the Influenza H1N1 virus", "showed interaction"]
]}
